B1: VDR (parent)
chain: LIKFQVGLKKLNLHEEEHVLLMAI

variants of: B1; test: protein stability index of a GFP-peptide fusion (GPS, HEK-293T) (PSI 1-6); higher = more stable; conditions: c terminus: a fixed tail appended;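 note: lentivirally expressed fusions sorted by FACS into six bins by GFP to DsRed ratio, PSI derived from sequencing read proportions per bin multiplied by bin number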
Lab note: compare protein stability index against 2. Equal or greater, write yes. Smaller, write no.

Field: example entries. Status: answers known.
Mutation Descriptor: L21N
Class Name: no
//
Mutation Descriptor: L11P
Class Name: yes
//
Mutation Descriptor: V19G
Class Name: no
//
Mutation Descriptor: E17L
Class Name: no
//
Mutation Descriptor: V6A
Class Name: yes

Next, consider the following variant.
INPUT: Tell me whether protein stability index is at least 2 here: L8S
OUTPUT: yes
